# Target of assay: D. immitis Slo-1 (Dirofilaria immitis, UniProt I0DFK5)
# Sequence (I0DFK5 1-1119): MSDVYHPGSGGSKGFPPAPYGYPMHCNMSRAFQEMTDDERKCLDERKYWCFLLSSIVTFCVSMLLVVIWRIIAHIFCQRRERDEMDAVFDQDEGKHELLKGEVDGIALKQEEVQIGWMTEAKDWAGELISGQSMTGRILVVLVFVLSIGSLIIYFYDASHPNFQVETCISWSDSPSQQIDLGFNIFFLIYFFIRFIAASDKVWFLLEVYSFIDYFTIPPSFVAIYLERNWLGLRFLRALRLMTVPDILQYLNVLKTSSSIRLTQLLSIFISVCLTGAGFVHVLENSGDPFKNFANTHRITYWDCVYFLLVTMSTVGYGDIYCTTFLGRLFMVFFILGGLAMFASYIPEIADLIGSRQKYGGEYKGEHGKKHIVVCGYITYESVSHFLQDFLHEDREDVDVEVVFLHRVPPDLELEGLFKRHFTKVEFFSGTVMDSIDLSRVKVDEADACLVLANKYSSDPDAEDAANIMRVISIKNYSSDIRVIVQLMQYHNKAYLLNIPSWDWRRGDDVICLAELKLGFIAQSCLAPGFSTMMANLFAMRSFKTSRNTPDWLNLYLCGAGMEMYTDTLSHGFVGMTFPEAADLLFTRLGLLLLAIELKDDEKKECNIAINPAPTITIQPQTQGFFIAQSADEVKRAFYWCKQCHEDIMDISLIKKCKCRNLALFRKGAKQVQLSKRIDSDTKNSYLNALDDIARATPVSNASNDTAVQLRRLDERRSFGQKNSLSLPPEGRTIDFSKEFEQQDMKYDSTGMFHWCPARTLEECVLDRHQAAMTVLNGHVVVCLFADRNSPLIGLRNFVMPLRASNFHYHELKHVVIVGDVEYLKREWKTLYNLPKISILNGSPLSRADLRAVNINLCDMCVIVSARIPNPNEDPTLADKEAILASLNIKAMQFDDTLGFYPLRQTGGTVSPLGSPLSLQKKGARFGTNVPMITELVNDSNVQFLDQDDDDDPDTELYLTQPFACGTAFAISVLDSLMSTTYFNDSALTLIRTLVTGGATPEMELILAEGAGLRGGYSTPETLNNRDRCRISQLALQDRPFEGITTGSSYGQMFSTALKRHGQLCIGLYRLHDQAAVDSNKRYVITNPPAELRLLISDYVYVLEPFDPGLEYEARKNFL
# Run description: In Vitro Assay 2: D. immitis Slo-1 recombinant CHO cell line, membrane potential
# Applied conditions: EC50, CHO cells expressing D. immitis Slo-1, voltage sensitive dye, FLIPR Tetra, 70 mM KCl
Catalogue of EC50 values

1. O=C(NN1CCOc2ccccc21)c1cnc2c(-c3cc(F)cc(F)c3F)c(F)ccc2c1C1CS(=O)(=O)C1 [Example 5.86] = 100 to 1000 nM
2. O=C(NN1C(=O)COc2ccccc21)c1cnc2c(-c3cc(F)cc(F)c3F)cccc2c1N1CCOCC1 [Example 5.109] = 100 to 1000 nM
3. O=C1CC(c2c(C(=O)NN3CCOc4ccccc43)cnc3c(-c4cc(F)cc(F)c4F)c(F)ccc23)C1 [Example 5.82] = < 100 nM
4. O=C(NN1CCOc2ccc(F)cc21)c1cnc2c(-c3cc(F)cc(F)c3F)c(F)ccc2c1N1CCOCC1 [Example 5.83] = < 100 nM
5. O=C(NN1CCOc2ccccc21)c1cnc2c(-c3cc(F)cc(S(F)(F)(F)(F)F)c3)c(F)ccc2c1C1CCOC1 (stereo not drawn) [Example 5.102] = < 100 nM

Missing value: EC50, D. immitis Slo-1 (Dirofilaria immitis, UniProt I0DFK5), entry O=C(NN1CCOc2ccccc21)c1cnc2c(-c3cc(C(F)(F)F)cc(F)c3F)c(F)ccc2c1N1CC(F)C1 [Example 5.96] . Fill in?
100 to 1000 nM

Missing value: EC50, D. immitis Slo-1 (Dirofilaria immitis, UniProt I0DFK5), entry O=C(NN1CCOc2ccc(F)cc21)c1cnc2c(-c3cc(F)cc(F)c3F)c(F)ccc2c1C1CCOC1 (stereo not drawn) [Example 5.97] . Fill in?
< 100 nM

Missing value: EC50, D. immitis Slo-1 (Dirofilaria immitis, UniProt I0DFK5), entry O=C(NN1CCOc2ccccc21)c1cnc2c(-c3cc(F)cc(F)c3F)c(F)ccc2c1C1CC(F)C1 (stereo not drawn) [Example 5.101] . Fill in?
< 100 nM

Missing value: EC50, D. immitis Slo-1 (Dirofilaria immitis, UniProt I0DFK5), entry O=C(NN1CCOc2ccccc21)c1cnc2c(-c3cc(C(F)(F)F)cc(F)c3F)c(F)ccc2c1C1CS(=O)(=O)C1 [Example 5.107] . Fill in?
100 to 1000 nM
